Biological target: KRAS G12C (Homo sapiens, UniProt P01116+P62937, G12C)
Sequence (P01116 1-169 isoform P01116-2 G12C): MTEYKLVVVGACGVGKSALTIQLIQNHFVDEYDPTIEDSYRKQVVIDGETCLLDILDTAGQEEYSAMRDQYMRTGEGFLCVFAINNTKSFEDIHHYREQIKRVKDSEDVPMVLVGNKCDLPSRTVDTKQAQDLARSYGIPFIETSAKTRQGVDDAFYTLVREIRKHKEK
Sequence (P62937 whole entry): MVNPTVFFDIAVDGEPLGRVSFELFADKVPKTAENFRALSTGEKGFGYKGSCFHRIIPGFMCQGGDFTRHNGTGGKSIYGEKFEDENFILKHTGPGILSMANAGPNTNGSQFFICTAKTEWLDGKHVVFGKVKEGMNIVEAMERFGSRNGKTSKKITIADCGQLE
Test: Disruption of BRAF RBD interaction with Ras (FRET / MOA assay, with Cyclophilin A)
Format: biochemical
Details: read-out: KRAS G12C FRET data, IC50
measured-endpoint: IC50

compound: CCn1c(-c2cccnc2[C@H](C)OC)c2c3cc(ccc31)-c1cc(O)cc(c1)C[C@H](NC(=O)[C@H](C(C)C)N(C)C(=O)[C@H]1CCN(C(=O)C(C)(C)N(C)C)C1)C(=O)N1CCC[C@H](N1)C(=O)OCC(C)(C)C2 (atropisomer, axis not shown)
assayed-system: KRAS G12C (Homo sapiens, UniProt P01116+P62937, G12C)
result: 10 to 100 nM
--
compound: CCn1c(-c2cccnc2[C@H](C)OC)c2c3cc(ccc31)-c1cc(O)cc(c1)C[C@H](NC(=O)[C@H](C(C)C)N(C)C(=O)C1CC13CCNCC3)C(=O)N1CCC[C@H](N1)C(=O)OCC(C)(C)C2 (some centres unmarked)
assayed-system: KRAS G12C (Homo sapiens, UniProt P01116+P62937, G12C)
result: 10 to 100 nM

Sourced from patent US20230233569A1
